- STUDY_TARGET: Rat FPR (Rattus norvegicus)
- Construct: endogenous in cells
- Sequence (D4A7Q2 1-355): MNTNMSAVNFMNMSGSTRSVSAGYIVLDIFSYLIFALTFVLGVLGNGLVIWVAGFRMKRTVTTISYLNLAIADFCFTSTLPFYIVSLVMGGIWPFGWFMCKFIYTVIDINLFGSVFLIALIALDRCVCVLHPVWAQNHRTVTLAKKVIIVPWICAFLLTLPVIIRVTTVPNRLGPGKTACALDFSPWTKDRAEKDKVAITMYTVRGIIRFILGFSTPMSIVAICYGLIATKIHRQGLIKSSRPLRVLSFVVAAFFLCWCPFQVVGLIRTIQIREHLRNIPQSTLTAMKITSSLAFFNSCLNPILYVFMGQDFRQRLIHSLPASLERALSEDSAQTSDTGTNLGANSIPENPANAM
- ASSAY_METHOD_TEXT: Competition binding with 6 nM 3H-fMLF to elicited rat PMNs
- CONDITION_LABEL: elicited rat PMNs, 6 nM 3H-fMLF, 4° C. 1 hour; brackets = 95% confidence interval; read-out: Receptor Binding (IC50)
pIC50: −log10 of the molar value.

>  <COMPOUND>
CSCC[C@H](NC(=O)OC(C)(C)C)C(=O)N[C@@H](CC(C)C)C(=O)N[C@@H](Cc1ccccc1)C(=O)O [N-t-BocMLF, reference compound]

>  <pIC50>
5.03

$$$$
